- Assayed Target: T1, ZFP SBS#1127 (synthetic)
- T1 chain: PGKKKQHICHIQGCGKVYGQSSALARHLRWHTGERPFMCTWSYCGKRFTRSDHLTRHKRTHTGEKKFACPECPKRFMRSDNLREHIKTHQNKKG
- Test Protocol: EMSA
- Stated Conditions: tags: MBP fusion
pKd: −log10 of the molar value.
Quantity Kind: pKd

{"Binder": "CAGGGGGTT (dsDNA) DNA 1: CAGGGGGTT DNA 2: AACCCCCTG", "Value Observed": 10.00}
